Entries and their measured log10 MFC follow.
# Test system: Aspergillus versicolor
# ASSAY_EXPLANATION: Fungicidal activity against Aspergillus versicolor ATCC 11730 by microdilution method
# Format: functional
log10 MFC, ×10⁻² mmol/ml

# COMPOUND, log10 MFC
records = [
    ("c1ccc(-c2ccc(C(c3ccccc3)n3ccnc3)cc2)cc1 (configuration not stated)", 1.81),
    ("CC(=O)c1c(O)c(C)c(O)c2c1OC1=CC(=O)/C(=C(/C)NCC(=O)NC(CO)C(=O)O)C(=O)[C@@]12C (some centres not stated)", 0.57),
    ("CC(=O)C1=C(O)C=C2Oc3c(C(C)=O)c(O)c(C)c(O)c3C2(C)C1=O (configuration not stated)", 0.94),
    ("CC(=O)N1CCN(c2ccc(OCC3COC(Cn4ccnc4)(c4ccc(Cl)cc4Cl)O3)cc2)CC1 (configuration not stated)", 2.58),
]

**Q:** Requested read-out: log10 MFC. Entry: "CC(=O)c1c(O)c(C)c(O)c2c1OC1=CC(=O)/C(=C(/C)NCc3nc(N)n[nH]3)C(=O)[C@@]12C"
**A:** 0.64

**Q:** And then "COCCc1noc(CCN/C(C)=C2\C(=O)C=C3Oc4c(C(C)=O)c(O)c(C)c(O)c4[C@@]3(C)C2=O)n1" , what is it?
**A:** 0.60

**Q:** And then "CC(=O)c1c(O)c(C)c(O)c2c1OC1=CC(=O)/C(=C(/C)NCCc3ccc(O)c(O)c3)C(=O)[C@@]12C" , what is it?
**A:** 0.62
